Data provenance: paper PMC11984575

assayed-system: human NaV1.7 (Homo sapiens, UniProt Q15858)
Sequence (Q15858 whole entry): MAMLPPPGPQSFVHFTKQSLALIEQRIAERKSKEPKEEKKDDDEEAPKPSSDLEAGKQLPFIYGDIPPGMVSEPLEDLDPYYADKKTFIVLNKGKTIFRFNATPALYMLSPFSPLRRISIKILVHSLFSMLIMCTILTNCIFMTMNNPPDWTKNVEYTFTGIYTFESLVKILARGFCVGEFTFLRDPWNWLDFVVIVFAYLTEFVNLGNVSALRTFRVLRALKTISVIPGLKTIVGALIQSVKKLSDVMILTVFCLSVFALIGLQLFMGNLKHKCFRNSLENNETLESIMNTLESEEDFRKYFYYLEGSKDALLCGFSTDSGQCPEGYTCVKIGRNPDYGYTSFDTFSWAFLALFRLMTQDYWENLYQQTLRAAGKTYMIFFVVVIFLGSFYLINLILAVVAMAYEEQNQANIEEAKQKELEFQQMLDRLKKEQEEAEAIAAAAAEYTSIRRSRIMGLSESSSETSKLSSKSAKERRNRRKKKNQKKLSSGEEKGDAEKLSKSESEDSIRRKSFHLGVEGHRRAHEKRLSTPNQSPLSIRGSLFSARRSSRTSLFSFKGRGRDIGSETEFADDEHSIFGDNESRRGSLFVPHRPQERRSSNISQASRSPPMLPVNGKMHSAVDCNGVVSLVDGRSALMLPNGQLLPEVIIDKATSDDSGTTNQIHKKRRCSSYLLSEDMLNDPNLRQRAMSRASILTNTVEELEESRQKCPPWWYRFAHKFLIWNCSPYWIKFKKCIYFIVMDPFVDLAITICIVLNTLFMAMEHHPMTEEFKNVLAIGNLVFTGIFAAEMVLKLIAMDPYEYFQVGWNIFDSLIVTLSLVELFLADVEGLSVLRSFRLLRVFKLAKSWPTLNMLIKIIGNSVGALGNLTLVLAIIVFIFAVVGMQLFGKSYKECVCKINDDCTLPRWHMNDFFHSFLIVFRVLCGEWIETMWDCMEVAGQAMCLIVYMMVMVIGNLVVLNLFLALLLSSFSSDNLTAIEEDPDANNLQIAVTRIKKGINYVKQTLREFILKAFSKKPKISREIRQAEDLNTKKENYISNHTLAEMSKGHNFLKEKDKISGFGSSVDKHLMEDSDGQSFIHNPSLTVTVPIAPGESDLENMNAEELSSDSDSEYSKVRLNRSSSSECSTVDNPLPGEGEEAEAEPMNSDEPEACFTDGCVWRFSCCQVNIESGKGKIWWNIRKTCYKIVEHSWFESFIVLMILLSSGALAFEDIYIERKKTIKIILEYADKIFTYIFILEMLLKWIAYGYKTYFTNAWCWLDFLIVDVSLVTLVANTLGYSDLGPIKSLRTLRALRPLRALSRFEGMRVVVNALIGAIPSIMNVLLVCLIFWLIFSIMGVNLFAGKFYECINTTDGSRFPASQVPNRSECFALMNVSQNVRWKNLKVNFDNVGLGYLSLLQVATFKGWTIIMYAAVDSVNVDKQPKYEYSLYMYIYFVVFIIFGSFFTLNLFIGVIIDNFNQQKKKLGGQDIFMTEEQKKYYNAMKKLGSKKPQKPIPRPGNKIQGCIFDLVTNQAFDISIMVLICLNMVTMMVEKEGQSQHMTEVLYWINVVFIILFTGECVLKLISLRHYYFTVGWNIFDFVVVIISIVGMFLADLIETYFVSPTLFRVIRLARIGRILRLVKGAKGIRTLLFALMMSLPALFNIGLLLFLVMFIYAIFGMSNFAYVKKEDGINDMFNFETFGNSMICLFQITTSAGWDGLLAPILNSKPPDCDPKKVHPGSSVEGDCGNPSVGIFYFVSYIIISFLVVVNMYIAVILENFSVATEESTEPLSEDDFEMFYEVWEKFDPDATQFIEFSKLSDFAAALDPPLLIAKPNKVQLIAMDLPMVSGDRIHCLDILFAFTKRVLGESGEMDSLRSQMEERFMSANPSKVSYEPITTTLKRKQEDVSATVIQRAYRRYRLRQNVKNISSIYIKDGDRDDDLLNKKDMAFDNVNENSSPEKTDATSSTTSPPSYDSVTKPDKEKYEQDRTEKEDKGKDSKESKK
procedure-summary: Automated patch clamp
measurement-type: IC50

Qu. For the molecule Cc1ccc(C(=O)Nc2ccnc(S(N)(=O)=O)c2)c(N2CCCC(F)(F)CC2)n1 , what IC50 is on record?
Ans. > 33.6 µM

----------
assayed-system: rodent NaV1.8 channel (Rattus norvegicus, UniProt Q62968)
measurement-type: IC50
Note to self: number, then unit, no commentary.

Qu. Given the entry Cc1ccc(C(=O)Nc2ccnc(S(N)(=O)=O)c2)c(N2CCCC(F)(F)CC2)n1 , report its measured IC50.
Ans. 4.83 µM

----------
assayed-system: human NaV1.9 (Homo sapiens)
Sequence (Q9UI33 whole entry): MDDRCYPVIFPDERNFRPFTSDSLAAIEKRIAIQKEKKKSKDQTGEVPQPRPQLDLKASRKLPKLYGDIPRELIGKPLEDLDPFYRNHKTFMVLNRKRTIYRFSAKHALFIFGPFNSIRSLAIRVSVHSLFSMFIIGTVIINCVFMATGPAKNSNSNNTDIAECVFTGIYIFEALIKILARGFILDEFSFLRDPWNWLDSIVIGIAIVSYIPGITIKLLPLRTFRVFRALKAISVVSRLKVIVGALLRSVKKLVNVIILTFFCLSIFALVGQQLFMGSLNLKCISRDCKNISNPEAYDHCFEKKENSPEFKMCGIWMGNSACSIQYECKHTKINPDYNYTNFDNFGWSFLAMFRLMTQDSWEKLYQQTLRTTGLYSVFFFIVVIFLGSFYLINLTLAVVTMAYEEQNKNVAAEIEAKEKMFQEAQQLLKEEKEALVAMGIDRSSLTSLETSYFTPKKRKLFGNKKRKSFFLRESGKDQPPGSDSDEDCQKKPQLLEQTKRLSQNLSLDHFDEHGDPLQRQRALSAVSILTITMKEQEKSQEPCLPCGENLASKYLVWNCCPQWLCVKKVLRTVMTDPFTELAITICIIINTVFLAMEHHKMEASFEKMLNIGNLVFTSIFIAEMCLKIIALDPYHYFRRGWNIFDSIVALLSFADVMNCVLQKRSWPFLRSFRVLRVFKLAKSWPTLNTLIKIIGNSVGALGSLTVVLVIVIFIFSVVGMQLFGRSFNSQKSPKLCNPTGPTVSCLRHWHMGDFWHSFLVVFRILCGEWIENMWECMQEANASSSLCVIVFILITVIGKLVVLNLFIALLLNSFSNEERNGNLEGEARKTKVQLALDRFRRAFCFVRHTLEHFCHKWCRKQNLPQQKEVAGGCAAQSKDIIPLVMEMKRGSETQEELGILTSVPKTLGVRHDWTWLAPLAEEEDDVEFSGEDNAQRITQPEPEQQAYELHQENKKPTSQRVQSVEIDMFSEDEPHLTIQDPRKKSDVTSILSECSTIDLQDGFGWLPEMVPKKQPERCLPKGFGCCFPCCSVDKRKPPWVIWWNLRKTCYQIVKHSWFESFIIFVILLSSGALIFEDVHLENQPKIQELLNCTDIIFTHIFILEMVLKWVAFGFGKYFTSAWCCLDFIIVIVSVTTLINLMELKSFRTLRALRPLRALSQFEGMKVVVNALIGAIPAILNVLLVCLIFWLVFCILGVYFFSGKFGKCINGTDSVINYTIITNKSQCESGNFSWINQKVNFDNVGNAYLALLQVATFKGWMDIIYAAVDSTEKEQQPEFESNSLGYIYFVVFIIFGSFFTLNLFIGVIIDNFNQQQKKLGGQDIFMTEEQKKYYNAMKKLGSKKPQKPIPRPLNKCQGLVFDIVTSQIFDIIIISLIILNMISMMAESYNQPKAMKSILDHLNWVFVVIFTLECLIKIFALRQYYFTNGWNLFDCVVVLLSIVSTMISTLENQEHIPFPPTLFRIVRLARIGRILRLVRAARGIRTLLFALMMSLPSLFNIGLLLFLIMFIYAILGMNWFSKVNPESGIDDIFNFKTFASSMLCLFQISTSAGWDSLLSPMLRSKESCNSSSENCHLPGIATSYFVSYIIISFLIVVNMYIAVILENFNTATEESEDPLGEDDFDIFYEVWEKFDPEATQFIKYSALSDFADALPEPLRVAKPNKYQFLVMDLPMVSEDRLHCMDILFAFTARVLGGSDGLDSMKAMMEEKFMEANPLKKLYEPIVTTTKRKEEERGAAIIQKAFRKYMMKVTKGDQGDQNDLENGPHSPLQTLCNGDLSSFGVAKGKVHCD
procedure-summary: Automated patch clamp
measurement-type: IC50

Qu. Using the record for Cc1ccc(C(=O)Nc2ccnc(S(N)(=O)=O)c2)c(N2CCCC(F)(F)CC2)n1 [MSD199] , report its IC50.
Ans. > 33 µM
